# experimental-system: HPK1 (Homo sapiens (Human))
# Sequence (Q92918 1-346 limits assumed): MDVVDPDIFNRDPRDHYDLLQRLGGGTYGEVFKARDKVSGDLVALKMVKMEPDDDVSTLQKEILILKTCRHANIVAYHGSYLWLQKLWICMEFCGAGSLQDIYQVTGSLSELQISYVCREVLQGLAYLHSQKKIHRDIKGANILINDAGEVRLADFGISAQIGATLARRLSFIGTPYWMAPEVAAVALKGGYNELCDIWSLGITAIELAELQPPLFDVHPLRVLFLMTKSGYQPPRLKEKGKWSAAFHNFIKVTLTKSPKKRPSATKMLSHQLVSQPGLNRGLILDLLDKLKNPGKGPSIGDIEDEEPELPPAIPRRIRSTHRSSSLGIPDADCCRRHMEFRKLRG
pIC50: −log10 of the molar value.
pIC50 of 8 or higher: condition met. Under 8: condition not met.

Use the examples below as a reference point.
{"molecule": "O=C1CCC(N2Cc3cc(N4CCC(CN5CCCN(c6cccc(-c7cnc8[nH]cc(C9CC9)c8c7Cl)c6)C5=O)CC4)ccc3C2=O)C(=O)N1 (centres unmarked)", "group": "condition not met"}
{"molecule": "CCc1c[nH]c2ncc(-c3cccc(N4CCCN(CCC5CCN(c6ccc(NC7CCC(=O)NC7=O)cc6F)CC5)C4=O)c3)c(Cl)c12 (centres unmarked)", "group": "condition met"}

# bool: pIC50 of CCc1c[nH]c2ncc(-c3cccc(N4CCCN(CC5CCN(c6ccc(NC7CCC(=O)NC7=O)cc6F)CC5)C4=O)c3)c(Cl)c12 (centres unmarked) >= 8
condition met

# bool: pIC50 of CCc1c[nH]c2ncc(-c3cccc(N4CCCN(CCN5CC(c6ccc7c(c6)C(=O)N(C6CCC(=O)NC6=O)C7=O)C5)C4=O)c3)c(Cl)c12 (centres unmarked) >= 8
condition met

# bool: pIC50 of O=C1CCC(N2C(=O)c3cc(F)c(N4CCC(CCN5CCCN(c6cccc(-c7cnc8[nH]cc(C9CC9)c8c7Cl)c6)C5=O)CC4)cc3C2=O)C(=O)N1 (centres unmarked) >= 8
condition not met

# bool: pIC50 of CCc1c[nH]c2ncc(-c3cccc(N4CCCN(CC5CCN(c6ccc7c(c6)C(=O)N(C6CCC(=O)N(C)C6=O)C7=O)CC5)C4=O)c3)c(Cl)c12 (centres unmarked) >= 8
condition not met

# bool: pIC50 of CCc1c[nH]c2ncc(-c3cccc(N4CCCN(CCN5CCC(c6ccc7c(c6)C(=O)N(C6CCC(=O)NC6=O)C7=O)CC5)C4=O)c3)c(Cl)c12 (centres unmarked) >= 8
condition met
